# Tested on: HIV-1 LAI
# MEASUREMENT_DESCRIPTION: Two-drug combination antiviral assay with Compound 1 (combination indices, Chou and Rideout)
# Type: cell-based
# APPLIED_CONDITIONS: combination with Compound 1; EC50 ratio 2.5:1 (Compound 1 to comparator); 95% CI in parenthesis
OBSERVABLE: Combination Indices at 50% HIV Inhibition (Confidence Interval)

Field: example entries. Status: answers known.
Cc1cn([C@H]2C=C[C@@H](CO)O2)c(=O)[nH]c1=O [Stavudine] : 0.28 (0.24, 0.32)
CC(C)(C)NC(=O)[C@@H]1CN(Cc2cccnc2)CCN1C[C@@H](O)C[C@@H](Cc1ccccc1)C(=O)N[C@H]1c2ccccc2C[C@H]1O [Indinavir] : 0.56 (0.43, 0.69)
CON(Cc1ccc(F)cc1)C(=O)C=C(O)C(=O)O [Compound 2] : 0.46 (0.34, 0.59)

Turning now to a further molecule:
Reported Combination Indices at 50% HIV Inhibition (Confidence Interval) for Nc1ccn([C@H]2CC[C@@H](CO)O2)c(=O)n1 [Zalcitabine] : what is it?
0.22 (0.18, 0.25)

====

# Tested on: HIV-1 LAI
# MEASUREMENT_DESCRIPTION: Two-drug combination antiviral assay with Compound 1 (combination indices, Chou and Rideout)
# Format: cell-based
# APPLIED_CONDITIONS: combination with Compound 1; EC50 ratio 1:2.5 (Compound 1 to comparator); 95% CI in parenthesis
OBSERVABLE: Combination Indices at 90% HIV Inhibition (Confidence Interval)

Cc1cn([C@H]2C=C[C@@H](CO)O2)c(=O)[nH]c1=O [Stavudine] : 0.36 (0.10, 0.62)
C[C@H](Cn1cnc2c(N)ncnc21)OCP(=O)(O)O [Tenofovir] : 0.50 (0.30, 0.70)
O=C1Nc2ccc(Cl)cc2[C@@](C#CC2CC2)(C(F)(F)F)O1 [Efavirenz] : 1.10 (0.64, 1.56)

Reported Combination Indices at 90% HIV Inhibition (Confidence Interval) for Nc1nc(=O)n([C@@H]2CS[C@H](CO)O2)cc1F [Emtricitabine] : what is it?
0.86 (0.59, 1.14)

====

# Test system: HIV-1 LAI
# MEASUREMENT_DESCRIPTION: Two-drug combination antiviral assay with Compound 1 (combination indices, Chou and Rideout)
# Format: cell-based
# APPLIED_CONDITIONS: combination with Compound 1; EC50 ratio 2.5:1 (Compound 1 to comparator); 95% CI in parenthesis
Listed here are compounds together with their documented Combination Indices at 50% HIV Inhibition (Confidence Interval).

Reported Combination Indices at 50% HIV Inhibition (Confidence Interval) for "O=c1[nH]cnc2c1ncn2[C@H]1CC[C@@H](CO)O1" : what is it?
1.02 (0.83, 1.22)

Reported Combination Indices at 50% HIV Inhibition (Confidence Interval) for "O=C1Nc2ccc(Cl)cc2[C@@](C#CC2CC2)(C(F)(F)F)O1" : what is it?
0.82 (0.62, 1.02)

Reported Combination Indices at 50% HIV Inhibition (Confidence Interval) for "CC(C)(C)NC(=O)[C@@H]1C[C@@H]2CCCC[C@@H]2CN1C[C@@H](O)[C@H](Cc1ccccc1)NC(=O)[C@H](CC(N)=O)NC(=O)c1ccc2ccccc2n1" : what is it?
0.14 (0.12, 0.16)

Reported Combination Indices at 50% HIV Inhibition (Confidence Interval) for "Cc1c(O)cccc1C(=O)N[C@@H](CSc1ccccc1)[C@H](O)CN1C[C@H]2CCCC[C@H]2C[C@H]1C(=O)NC(C)(C)C" : what is it?
0.17 (0.13, 0.21)

Reported Combination Indices at 50% HIV Inhibition (Confidence Interval) for "c1cc(CN2CCCNCCNCCCNCC2)ccc1CN1CCCNCCNCCCNCC1" : what is it?
0.56 (0.38, 0.73)
